For each entry below, report its IC50 value.
System: HeLa
Test description: Anticancer activity against human HeLa cells after 24 hrs by MTT assay
Assay type: functional, cell-based

Task: Any idea what IC50 was measured for C=C[C@@]1(C)CC(=O)[C@@]23O[C@@H](c4ccc([N+](=O)[O-])cc4)O[C@H]4CCC(C)(C)[C@H]([C@H](O)[C@H](OC(C)=O)[C@@]2(C)O1)[C@]43C ?
Output: > 100 µg/mL

Task: Any idea what IC50 was measured for C=C[C@@]1(C)CC(=O)[C@@]23O[C@@H](c4ccco4)O[C@H]4CCC(C)(C)[C@H]([C@H](O)[C@H](OC(C)=O)[C@@]2(C)O1)[C@]43C ?
Output: > 100 µg/mL

Task: Any idea what IC50 was measured for C=C[C@@]1(C)CC(=O)[C@@]23O[C@@H](c4ccccc4)O[C@H]4CCC(C)(C)[C@H]([C@H](O)[C@H](OC(C)=O)[C@@]2(C)O1)[C@]43C ?
Output: > 100 µg/mL

----------
System: MCF7
Test description: Anticancer activity against human MCF7 cells after 24 hrs by MTT assay
Assay type: functional, cell-based
Experimental setup: MCF7, 24 h
Property: IC50

Task: Any idea what IC50 was measured for C=C[C@@]1(C)CC(=O)[C@@]23O[C@@H](C)O[C@H]4CCC(C)(C)[C@H]([C@H](OC(C)=O)[C@H](O)[C@@]2(C)O1)[C@]43C ?
Output: 39.2 µg/mL

Task: Any idea what IC50 was measured for C=C[C@@]1(C)CC(=O)[C@@]23O[C@@H](c4ccc(Br)cc4)O[C@H]4CCC(C)(C)[C@H]([C@H](O)[C@H](OC(C)=O)[C@@]2(C)O1)[C@]43C ?
Output: > 100 µg/mL

Task: Any idea what IC50 was measured for C=C[C@@]1(C)CC(=O)[C@@]23O[C@@H](c4ccccc4)O[C@H]4CCC(C)(C)[C@H]([C@H](O)[C@H](O)[C@@]2(C)O1)[C@]43C ?
Output: > 100 µg/mL

Task: Any idea what IC50 was measured for C=C[C@@]1(C)CC(=O)[C@@]23O[C@@H](c4ccccc4)O[C@H]4CCC(C)(C)[C@H]([C@H](O)[C@H](OC(C)=O)[C@@]2(C)O1)[C@]43C ?
Output: > 100 µg/mL

Task: Any idea what IC50 was measured for C=C[C@@]1(C)CC(=O)[C@@]23O[C@@H](c4ccc([N+](=O)[O-])cc4)O[C@H]4CCC(C)(C)[C@H]([C@H](O)[C@H](OC(C)=O)[C@@]2(C)O1)[C@]43C ?
Output: > 100 µg/mL

Task: Any idea what IC50 was measured for C=C[C@@]1(C)CC(=O)[C@@]23O[C@@H](C)O[C@H]4CCC(C)(C)[C@H]([C@H](O)[C@H](O)[C@@]2(C)O1)[C@]43C ?
Output: 45.7 µg/mL

Task: Any idea what IC50 was measured for C=C[C@@]1(C)CC(=O)[C@@]23O[C@@H](C)O[C@H]4CCC(C)(C)[C@H]([C@H](O)[C@H](OC(C)=O)[C@@]2(C)O1)[C@]43C ?
Output: > 100 µg/mL

Task: Any idea what IC50 was measured for C=C[C@@]1(C)CC(=O)[C@@]23O[C@@H](c4ccccc4)O[C@H]4CCC(C)(C)[C@H]([C@H](OC(C)=O)[C@H](O)[C@@]2(C)O1)[C@]43C ?
Output: 1.15 µg/mL
